Data origin, for the record: PubChem BioAssay

Molecular target: Albumin (Bos taurus) (UniProt P02769)
Sequence (P02769 whole entry, looked up): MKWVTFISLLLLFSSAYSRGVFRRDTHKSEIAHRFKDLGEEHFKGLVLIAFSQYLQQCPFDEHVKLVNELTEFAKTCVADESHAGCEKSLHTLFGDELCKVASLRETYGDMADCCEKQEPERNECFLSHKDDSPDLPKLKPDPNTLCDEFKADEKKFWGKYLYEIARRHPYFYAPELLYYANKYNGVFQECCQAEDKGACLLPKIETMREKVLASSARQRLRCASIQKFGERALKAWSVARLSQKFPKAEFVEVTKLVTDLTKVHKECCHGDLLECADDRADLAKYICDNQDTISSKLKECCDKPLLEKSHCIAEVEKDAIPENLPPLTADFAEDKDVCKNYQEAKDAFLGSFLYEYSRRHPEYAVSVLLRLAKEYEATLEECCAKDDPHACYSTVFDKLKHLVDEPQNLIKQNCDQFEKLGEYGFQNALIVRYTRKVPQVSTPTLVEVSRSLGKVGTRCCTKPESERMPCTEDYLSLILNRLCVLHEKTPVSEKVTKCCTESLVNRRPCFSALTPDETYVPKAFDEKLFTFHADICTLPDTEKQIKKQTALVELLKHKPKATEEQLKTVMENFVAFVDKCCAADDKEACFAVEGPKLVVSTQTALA
Test: bovine serum albumin binders on microarray, profiling panel, artefact control for SMM control protein annotation, biochemical, small-molecule microarray, Alexa647 label, 635/667 nm fluorescence (AID 1118);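 also: score merges 667 nm emission intensity and signal-to-noise per printed compound spot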
Settings: BSA-A647 binding, fluorescence 635 nm, higher = more signal
Label y when composite z-score >= 0.2; otherwise n.

# input Check this compound for composite z-score at or above 0.2: `Cc1ccc(S[C@]2(C(=O)O)CC(=O)N(Cc3cc(C(F)(F)F)cc(C(F)(F)F)c3)[C@@H]2c2ccc(CO)cc2)cc1`
# output n

# input hey, is composite z-score for this one >= 0.2? `C=C(COC)C(=O)CC[C@@H](OC(=O)c1cccnc1)c1ccc(OCCO)cc1`
# output n

# input Confirm if composite z-score reported for the compound `CCOC(=O)C[C@H]1[C@H](OC(=O)c2ccc(C(=O)c3ccccc3)cc2)[C@@H](NC(=O)Cc2ccc(OC)cc2)c2cc(OCCCO)ccc2N1C(=O)c1ccccc1` is 0.2 or above.
# output y

# input Is it the case that Cc1ccccc1C(O)C1C=CC2C(=O)N(C)C(=O)C2N1N(c1ccccc1)c1ccccc1 (stereo not given) has composite z-score reaching or exceeding 0.2?
# output y

# input Item `COC(=O)[C@@]1(Cc2ccc(OC)cc2)[C@H]2c3cc(C(=O)N(C)C)n(CCO)c3C[C@H]2CN1C(=O)c1ccccc1` with composite z-score of 0.2 or above?
# output y

# input Does O=C1NC(=O)C2C1C=CC(C(O)c1ccco1)N2Nc1ccccn1 (stereo not given) have a reported composite z-score of at least 0.2?
# output n

# input Tell me whether composite z-score is at least 0.2 here: `O[C@@H](Cc1ccccc1)[C@@H](/C=C/C1CC1)N(CC#Cc1ccccc1)Cc1cccc(Cl)c1`
# output n

# input Reported composite z-score at or above 0.2? `COCCOC(=O)N1C(=O)[C@@]2(c3cc(C#CC4=CCCCC4)ccc31)[C@H](C(N)=O)[C@H]1C(=O)O[C@H](c3ccccc3)[C@H](c3ccccc3)N1[C@@H]2c1ccccc1OCCO`
# output n
